Assay: Anticancer activity against human KBVIN cells after 3 days by SRB assay
Type: functional
Conditions: 72 h, read-out: ED50 (the source's name)
pEC50: −log10 of the molar value.
The label depends only on pEC50: rule met if it is at least 5, rule not met if it is smaller.

CCC1=C(O)c2c(oc(-c3cc(C)ccc3F)cc2=O)C(CC)(CC)C1=O
rule met
CCC1=C(O)c2c(oc(-c3cc(C)c(C)cc3C)cc2=O)C(CC)(CC)C1=O
rule met
CCCCc1ccc(-c2cc(=O)c3c(o2)C(CC)(CC)C(=O)C(CC)=C3O)cc1
rule not met

Task: Confirm if pEC50 reported for the compound "CCC1=C(O)c2c(oc(-c3ccc(Br)cc3)cc2=O)C(CC)(CC)C1=O" is 5 or above.
Output: rule not met

Task: Confirm if pEC50 reported for the compound "CCC1=C(O)c2c(oc(-c3ccc(C(C)C)cc3)cc2=O)C(CC)(CC)C1=O" is 5 or above.
Output: rule met

====

Assay: Anticancer activity against human KBVIN cells after 3 days by SRB assay
Format: functional
Conditions: 72 h, read-out: ED50 (the source's name)
experimental.readout: EC50 (µM)
Enter your answer as a number in µM; do not include the unit.

CCC1=C(O)c2c(oc(-c3cc(C)ccc3C)cc2=O)C(CC)(CC)C1=O
3.41
CCC1=C(O)c2c(oc(-c3ccc(OC)c(Cl)c3)cc2=O)C(CC)(CC)C1=O
1.37
CCCOc1ccc(-c2cc(=O)c3c(o2)C(CC)(CC)C(=O)C(CC)=C3O)cc1
29.2
CCC1=C(O)c2c(oc(-c3ccccc3C)cc2=O)C(CC)(CC)C1=O
2.41
CCC1=C(O)c2c(oc(-c3ccc(OC(F)(F)F)cc3)cc2=O)C(CC)(CC)C1=O
9.95
CCC1=C(O)c2c(oc(-c3ccc(OC)cc3C)cc2=O)C(CC)(CC)C1=O
2.62
CCC1=C(O)c2c(oc(-c3cc(C)c(OC)cc3C)cc2=O)C(CC)(CC)C1=O
7.58
CCC1=C(O)c2c(oc(-c3cccc(OC)c3OC)cc2=O)C(CC)(CC)C1=O
4.02

# next molecule below
Task: Dear colleague, I am looking for the recorded EC50 of the following molecule: "CCC1=C(O)c2c(oc(-c3ccc(O)cc3)cc2=O)C(CC)(CC)C1=O"
Output: 20.6

====

Measured EC50, listed per entry for reference.
Assay: Anticancer activity against human KBVIN cells after 3 days by SRB assay
Assay type: functional
Settings: 72 h, read-out: ED50 (the source's name)
Enter your answer as a number in µM; do not include the unit.

Known results for compounds:
CCC1=C(O)c2c(oc(-c3ccc(C(F)(F)F)cc3)cc2=O)C(CC)(CC)C1=O
10.3
CCC1=C(O)c2c(oc(-c3ccc(SC)cc3)cc2=O)C(CC)(CC)C1=O
1.38
CCC1=C(O)c2c(oc(-c3ccc(C)cc3C)cc2=O)C(CC)(CC)C1=O
8.52

Task: Dear colleague, I am looking for the recorded EC50 of the following compound: "CCC1=C(O)c2c(oc(-c3ccc(C)c(C)c3)cc2=O)C(CC)(CC)C1=O"
Output: 0.71

Task: Dear colleague, I am looking for the recorded EC50 of the following compound: "CCC1=C(O)c2c(oc(-c3ccc(F)c(C)c3)cc2=O)C(CC)(CC)C1=O"
Output: 1.62

Task: Dear colleague, I am looking for the recorded EC50 of the following compound: "CCC1=C(O)c2c(oc(-c3cc(C)cc(C)c3)cc2=O)C(CC)(CC)C1=O"
Output: 0.45

====

Experiment: Anticancer activity against human KBVIN cells after 3 days by SRB assay
Format: functional
Details: 72 h, read-out: ED50 (the source's name)
experimental.readout: EC50 (nM)
Enter your answer as a number in nM; do not include the unit.

Known results for compounds:
CCC1=C(O)c2c(oc(-c3ccc(OC)c(OC)c3)cc2=O)C(CC)(CC)C1=O
1000
CCC1=C(O)c2c(oc(-c3cccc(C)c3C)cc2=O)C(CC)(CC)C1=O
850
CCC1=C(O)c2c(oc(-c3cc(OC)c(OC)c(OC)c3)cc2=O)C(CC)(CC)C1=O
5600

Task: Dear colleague, I am looking for the recorded EC50 of the following compound: "CCC1=C(O)c2c(oc(-c3ccc(COC)cc3)cc2=O)C(CC)(CC)C1=O"
Output: 3400

Task: Dear colleague, I am looking for the recorded EC50 of the following compound: "CCC1=C(O)c2c(oc(-c3cccc(OC)c3)cc2=O)C(CC)(CC)C1=O"
Output: 1220

Task: Dear colleague, I am looking for the recorded EC50 of the following compound: "CCC1=C(O)c2c(oc(-c3ccc(C)c(F)c3)cc2=O)C(CC)(CC)C1=O"
Output: 2950

====

Experiment: Anticancer activity against human KBVIN cells after 3 days by SRB assay
Assay type: functional
Conditions: 72 h, read-out: ED50 (the source's name)
pEC50: −log10 of the molar value.
The label depends only on pEC50: Y if it is at least 5, N if it is smaller.

Answered examples (6):
CCC1=C(O)c2c(oc(-c3ccc(C(C)(C)C)cc3)cc2=O)C(CC)(CC)C1=O
N
CCC1=C(O)c2c(oc(-c3ccccc3OC)cc2=O)C(CC)(CC)C1=O
Y
CCC1=C(O)c2c(oc(-c3cc(OC)cc(OC)c3)cc2=O)C(CC)(CC)C1=O
Y
CCC1=C(O)c2c(oc(-c3ccc(OC)c(C)c3C)cc2=O)C(CC)(CC)C1=O
Y
CCC1=C(O)c2c(oc(-c3ccc(CBr)cc3)cc2=O)C(CC)(CC)C1=O
N
CCC1=C(O)c2c(oc(-c3ccc(O)c(C)c3C)cc2=O)C(CC)(CC)C1=O
Y

Task: Confirm if pEC50 reported for the compound "CCC1=C(O)c2c(oc(-c3ccc(OC)cc3)cc2=O)C(CC)(CC)C1=O" is 5 or above.
Output: Y

Task: Confirm if pEC50 reported for the compound "CCC1=C(O)c2c(oc(-c3cccc(F)c3)cc2=O)C(CC)(CC)C1=O" is 5 or above.
Output: Y

Task: Confirm if pEC50 reported for the compound "CCC1=C(O)c2c(oc(-c3cccc(C)c3)cc2=O)C(CC)(CC)C1=O" is 5 or above.
Output: Y

Task: Confirm if pEC50 reported for the compound "CCC1=C(O)c2c(oc(-c3ccccc3F)cc2=O)C(CC)(CC)C1=O" is 5 or above.
Output: Y

====

Test: Anticancer activity against human KBVIN cells after 3 days by SRB assay
Type: functional
Settings: 72 h, read-out: ED50 (the source's name)
Measured EC50, listed per entry for reference.
Enter your answer as a number in nM; do not include the unit.

Known results for compounds:
CCOc1ccc(-c2cc(=O)c3c(o2)C(CC)(CC)C(=O)C(CC)=C3O)cc1
7540
CCC1=C(O)c2c(oc(-c3cccc(OC(F)(F)F)c3)cc2=O)C(CC)(CC)C1=O
9950
CCC1=C(O)c2c(oc(-c3ccc(F)cc3)cc2=O)C(CC)(CC)C1=O
1850
CCC1=C(O)c2c(oc(-c3ccccc3C(F)(F)F)cc2=O)C(CC)(CC)C1=O
43100
CCC1=C(O)c2c(oc(-c3cccc(C(F)(F)F)c3)cc2=O)C(CC)(CC)C1=O
5420
CCC1=C(O)c2c(oc(-c3ccc(OC)c(OC)c3OC)cc2=O)C(CC)(CC)C1=O
1570
CCC1=C(O)c2c(oc(-c3ccc(CC)cc3)cc2=O)C(CC)(CC)C1=O
70
CCC1=C(O)c2c(oc(-c3ccc(C)c(Cl)c3)cc2=O)C(CC)(CC)C1=O
2150
CCC1=C(O)c2c(oc(-c3cc(OC)ccc3OC)cc2=O)C(CC)(CC)C1=O
2510

# next compound below
Task: Dear colleague, I am looking for the recorded EC50 of the following compound: "CCC1=C(O)c2c(oc(-c3ccc(OC)c(C)c3)cc2=O)C(CC)(CC)C1=O"
Output: 100

====

Experiment: Anticancer activity against human KBVIN cells after 3 days by SRB assay
Assay type: functional
Conditions: 72 h, read-out: ED50 (the source's name)
Measured EC50, listed per entry for reference.
Enter your answer as a number in nM; do not include the unit.

Task: Dear colleague, I am looking for the recorded EC50 of the following molecule: "CCC1=C(O)c2c(oc(-c3ccc(OC)c(F)c3)cc2=O)C(CC)(CC)C1=O"
Output: 100

Task: Dear colleague, I am looking for the recorded EC50 of the following molecule: "CCOc1cccc(-c2cc(=O)c3c(o2)C(CC)(CC)C(=O)C(CC)=C3O)c1OCC"
Output: 31700

Task: Dear colleague, I am looking for the recorded EC50 of the following molecule: "CCC1=C(O)c2c(oc(-c3ccccc3)cc2=O)C(CC)(CC)C1=O"
Output: 1070

====

Test: Anticancer activity against human KBVIN cells after 3 days by SRB assay
Format: functional
Conditions: 72 h, read-out: ED50 (the source's name)
Measured EC50, listed per entry for reference.
Enter your answer as a number in µM; do not include the unit.

CCC1=C(O)c2c(oc(-c3ccc(O)c(O)c3)cc2=O)C(CC)(CC)C1=O
5.41
CCC1=C(O)c2c(oc(-c3cc(Cl)c(OC)c(OC)c3)cc2=O)C(CC)(CC)C1=O
8.4

# next compound below
Task: Dear colleague, I am looking for the recorded EC50 of the following compound: "CCC1=C(O)c2c(oc(-c3ccc(C)cc3)cc2=O)C(CC)(CC)C1=O"
Output: 0.08

Taken from ChEMBL document CHEMBL1250520.
